B1: tRNA (parent)
chain: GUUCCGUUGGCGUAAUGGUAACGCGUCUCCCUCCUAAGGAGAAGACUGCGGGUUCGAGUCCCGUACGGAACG

Variants of: B1
method-description: yeast fitness relative to wild type (ratio to wild type); higher = fitter; tRNA-Arg(CCU), competitive growth, 37 C, YPD
Variants at the floor of the assay were thinned out.
variants and their reported yeast fitness

// worked examples, yeast fitness included
{"columns": ["variant-notation", "yeast fitness"],
 "data": [
  ["U28G C61A", 0.561],
  ["U3G G6A A14G G38C G41C A57C", 0.62],
  ["U2C C24G C46U", "≤ 0.5"],
  ["U3C G6A U54C C61G", "≤ 0.5"]
]}

Prompt: Suppose we examine the variant U47A A65U ; what yeast fitness value has been reported?
Completion: 0.68

Prompt: Suppose we examine the variant A40G C61U A70U ; what yeast fitness value has been reported?
Completion: 0.612

Prompt: Suppose we examine the variant C5G A21G C31G A36C A57G C62U ; what yeast fitness value has been reported?
Completion: 0.586

Prompt: Suppose we examine the variant C5A C34G C66U ; what yeast fitness value has been reported?
Completion: ≤ 0.5

Prompt: Suppose we examine the variant U47A C61A ; what yeast fitness value has been reported?
Completion: 0.769

Prompt: Suppose we examine the variant C5A A40G C46A ; what yeast fitness value has been reported?
Completion: 0.773

Prompt: Suppose we examine the variant U8A G12C A21C C27G C31U G52A ; what yeast fitness value has been reported?
Completion: 0.59

Prompt: Suppose we examine the variant A20U U32G U35A C62U A69C ; what yeast fitness value has been reported?
Completion: ≤ 0.5

Prompt: Suppose we examine the variant C4U A15G G23C A37U C61A ; what yeast fitness value has been reported?
Completion: ≤ 0.5

Prompt: Suppose we examine the variant C5A C60U A65C ; what yeast fitness value has been reported?
Completion: ≤ 0.5

Prompt: Suppose we examine the variant C5U G39A G48A A57U ; what yeast fitness value has been reported?
Completion: 0.565

From: the RNAGym collection of RNA variant scans (doi:10.1126/science.aae0568)
